target: human prostanoid FP receptor (Homo sapiens, UniProt P43088); construct: expressed in transfected cells; test: FLIPR Ca2+ signaling antagonist assay, FP receptor stable cell line; type: cell-based; details: HEK-293 EBNA stable cells, standard agonist 17-phenyl-PGF2α; NA = inactive (no antagonism or Kb≧10,000 nM)
Sequence (P43088 whole entry): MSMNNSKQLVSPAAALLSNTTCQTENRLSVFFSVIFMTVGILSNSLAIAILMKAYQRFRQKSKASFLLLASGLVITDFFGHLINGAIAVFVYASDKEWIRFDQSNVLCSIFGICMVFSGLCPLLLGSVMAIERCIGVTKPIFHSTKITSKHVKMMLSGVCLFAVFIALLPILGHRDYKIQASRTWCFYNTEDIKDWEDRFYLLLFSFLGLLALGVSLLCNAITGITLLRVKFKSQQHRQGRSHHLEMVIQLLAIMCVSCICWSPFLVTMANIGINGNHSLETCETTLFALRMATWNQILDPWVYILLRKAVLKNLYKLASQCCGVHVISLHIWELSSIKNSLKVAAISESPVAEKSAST
Reported Endpoint: Kb (nM)

Use these answered entries as a reference point.
Cc1cc(CCC(=O)O)nn1Cc1cc(C(F)(F)F)ccc1OCC1CCCC1; 63
CCC(CC)COc1ccc(Br)cc1Cn1nc(CCC(=O)O)cc1C; 75
Cc1cc(CCC(=O)NS(=O)(=O)C(F)(F)F)nn1Cc1cc(Cl)ccc1OCc1ccc(Cl)cc1; 140
Cc1cc(CCC(=O)O)nn1Cc1cc(Br)ccc1OCC1CCCC1; 75

P = CCC(CC)COc1ccc(Cl)cc1Cn1nc(CCC(=O)O)cc1C
Q = Cc1cc(CCC(=O)O)nn1Cc1cc(Cl)ccc1OCC1CCCC1
[Q] Which one would you say has the larger Kb value: P , or Q ? Answer format: the label of the selected item.
[A] P

* * *

biological target: human prostanoid IP receptor (Homo sapiens, UniProt P43119); construct: expressed in transfected cells; assay: FLIPR Ca2+ signaling antagonist assay, IP receptor stable cell line; type: cell-based; settings: HEK-293 EBNA stable cells, standard agonist Cicaprost; NA = inactive (no antagonism or Kb≧10,000 nM)
Sequence (P43119 whole entry): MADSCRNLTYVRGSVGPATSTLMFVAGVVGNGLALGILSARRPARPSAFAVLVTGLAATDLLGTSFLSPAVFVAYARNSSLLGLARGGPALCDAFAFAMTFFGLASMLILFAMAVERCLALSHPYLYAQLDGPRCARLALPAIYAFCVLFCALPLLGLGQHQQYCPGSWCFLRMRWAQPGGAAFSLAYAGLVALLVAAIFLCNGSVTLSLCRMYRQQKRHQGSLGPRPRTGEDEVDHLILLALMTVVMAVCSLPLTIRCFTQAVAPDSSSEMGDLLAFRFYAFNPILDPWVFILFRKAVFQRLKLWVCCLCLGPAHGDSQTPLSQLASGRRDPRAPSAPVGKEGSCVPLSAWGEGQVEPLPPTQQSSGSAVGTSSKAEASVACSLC
Reported Endpoint: Kb (nM)

# example entries with known answers
CCC(CC)COc1ccc(Br)cc1Cn1nc(CCC(=O)O)cc1C; 1600
Cc1cc(CCC(=O)O)nn1Cc1cc(Cl)ccc1OCC1CCCC1; 1200

1 = CCC(CC)COc1ccc(Cl)cc1Cn1nc(CCC(=O)O)cc1C
2 = Cc1cc(CCC(=O)O)nn1Cc1cc(C(F)(F)F)ccc1OCC1CCCC1
3 = Cc1cc(CCC(=O)NS(=O)(=O)C(F)(F)F)nn1Cc1cc(Cl)ccc1OCc1ccc(Cl)cc1
4 = Cc1cc(CCC(=O)O)nn1Cc1cc(Br)ccc1OCC1CCCC1
[Q] Parameters: sort_field (Kb), sort_dir (desc). Field: ranking. Enter the labels in the order requested.
[A] 2, 4, 1, 3

* * *

biological target: human prostanoid EP4 receptor (Homo sapiens, UniProt P35408); construct: expressed in transfected cells; test: FLIPR Ca2+ signaling antagonist assay, EP4 receptor stable cell line; format: cell-based; conditions: HEK-293 EBNA stable cells with chimeric Gqs, standard agonist PGE2; NA = inactive (no antagonism or Kb≧10,000 nM)
Sequence (P35408 whole entry): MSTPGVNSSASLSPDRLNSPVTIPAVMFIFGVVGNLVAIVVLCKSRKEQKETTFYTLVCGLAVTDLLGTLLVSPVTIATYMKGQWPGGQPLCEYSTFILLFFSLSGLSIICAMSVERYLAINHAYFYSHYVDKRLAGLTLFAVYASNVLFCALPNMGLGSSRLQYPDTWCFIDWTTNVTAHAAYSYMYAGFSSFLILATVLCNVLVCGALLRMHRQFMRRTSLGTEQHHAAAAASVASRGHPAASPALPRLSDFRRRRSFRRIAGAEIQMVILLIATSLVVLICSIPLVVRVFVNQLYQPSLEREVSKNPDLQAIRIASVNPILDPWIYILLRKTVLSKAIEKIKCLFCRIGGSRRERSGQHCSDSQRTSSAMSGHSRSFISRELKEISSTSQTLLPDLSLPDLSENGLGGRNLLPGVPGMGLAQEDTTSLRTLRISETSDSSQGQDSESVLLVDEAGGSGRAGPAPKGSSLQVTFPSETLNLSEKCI
Reported Endpoint: Kb (nM)

Cc1cc(CCC(=O)NS(=O)(=O)C(F)(F)F)nn1Cc1cc(Cl)ccc1OCc1ccc(Cl)cc1; 150
Cc1cc(CCC(=O)O)nn1Cc1cc(C(F)(F)F)ccc1OCC1CCCC1; 240
CCC(CC)COc1ccc(Cl)cc1Cn1nc(CCC(=O)O)cc1C; 68
Cc1cc(CCC(=O)O)nn1Cc1cc(Br)ccc1OCC1CCCC1; 120

A = Cc1cc(CCC(=O)O)nn1Cc1cc(Cl)ccc1OCC1CCCC1
B = CCC(CC)COc1ccc(Br)cc1Cn1nc(CCC(=O)O)cc1C
[Q] Identify the entry with the smaller Kb: A or B . Could you answer with the label of the item you picked?
[A] B

* * *

target: human prostanoid DP1 receptor (Homo sapiens); construct: expressed in transfected cells; test: FLIPR Ca2+ signaling antagonist assay, DP1 receptor stable cell line; type: cell-based; settings: HEK-293 EBNA stable cells with chimeric Gqs, standard agonist BW 245C; NA = inactive (no antagonism or Kb≧10,000 nM)
Sequence (Q13258 whole entry): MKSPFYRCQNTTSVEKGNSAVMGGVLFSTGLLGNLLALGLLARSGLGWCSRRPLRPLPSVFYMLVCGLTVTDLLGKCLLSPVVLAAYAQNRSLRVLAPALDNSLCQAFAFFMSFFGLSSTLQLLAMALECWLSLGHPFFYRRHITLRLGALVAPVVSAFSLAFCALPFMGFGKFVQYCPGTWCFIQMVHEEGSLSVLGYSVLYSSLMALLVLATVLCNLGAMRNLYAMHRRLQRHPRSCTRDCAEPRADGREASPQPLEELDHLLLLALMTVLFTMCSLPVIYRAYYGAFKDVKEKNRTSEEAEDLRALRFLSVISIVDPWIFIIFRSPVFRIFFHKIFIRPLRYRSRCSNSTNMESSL
Reported Endpoint: Kb (nM)

1 = Cc1cc(CCC(=O)NS(=O)(=O)C(F)(F)F)nn1Cc1cc(Cl)ccc1OCc1ccc(Cl)cc1 [Example 1]
2 = CCC(CC)COc1ccc(Br)cc1Cn1nc(CCC(=O)O)cc1C [Example 3]
[Q] Hi, I'm comparing two records. Which one has the lower Kb, 1 or 2 ? // caller expects the label of the chosen entry
[A] 2
(2: 140 nM, 1: 280 nM)
